System: ACHN renal
Assay Name: NCI-60 one-dose screen, 48 h
Condition Summary: 10 µM
The panel holds about 83,000 compounds, 20% with a hit somewhere; the sample as a whole holds those more often. Calls of active or inactive are those of the source. The calls were made as follows: active = growth percent below 10; inactive = the rest.
Pick one: active, inactive

Reference set, count: 10
INSERT INTO results (molecule, assigned_label) VALUES
  ('COc1ccc(-c2nnc(SCC(=O)c3ccccc3)o2)cc1', 'inactive'),
  ('O=c1oc2cc(OS(=O)(=O)C3CC3)ccc2c2c1CCCCCC2', 'inactive'),
  ('CCOc1nc(-c2ccccc2)cc2c(O)c(C(=O)NC(C)C)[nH]c(=O)c12', 'inactive'),
  ('CCCOCC(O)CNCCN (configuration not stated)', 'inactive'),
  ('CCOC(=O)Nc1ccc2c(c1)C(=O)N(CC)c1ccccc1O2', 'inactive'),
  ('COc1cc(C2c3cc4c(cc3C(O)C(CO)C2CO)OCO4)cc(OC)c1OC (configuration not stated)', 'inactive'),
  ('Cc1ccc([P+](Cc2ccc([N+](=O)[O-])cc2)(c2ccc(C)cc2)c2ccc(C)cc2)cc1', 'inactive'),
  ('Cc1ccc(NC(=O)/C=N/O)cc1C', 'inactive'),
  ('FC(F)(F)c1ccc(-c2cnc(Cl)nc2NCc2cc(C(F)(F)F)cc(C(F)(F)F)c2)cc1', 'active'),
  ('Cc1cc(=O)oc2cc(OCc3cn(CC(O)CO)nn3)ccc12 (configuration not stated)', 'inactive');

[ask] Hi, sorry to bother you, what did the test record for "CC(C)C[C@H](NC(=O)CCn1ccc2ccccc2c1=O)B(O)O" ?
[reply] inactive

[ask] Any idea what this test logged for "O=C(Nc1cccc([N+](=O)[O-])c1)NN1CCCCCC1" ?
[reply] inactive

[ask] // param item: "O=C(NCCCl)c1cc(Cl)cc(Cl)c1" ; yields the recorded call
[reply] inactive

[ask] Recorded test call requested for "CCN1CCN(c2nc(NNC(=O)c3cccc(OC)c3)nc(N3CCN(C(c4ccccc4)c4ccccc4)CC3)n2)CC1"
[reply] inactive

[ask] Which outcome did this test record for the molecule "O=C(COc1ccc(-c2nc3ccccc3[nH]2)cc1)N=Nc1c(O)[nH]c2ccccc12" ?
[reply] inactive
